Can you tell me melting point for the items I'm about to list?

# example entries with known answers
{"columns": ["molecule", "result value"],
 "data": [
  ["CC(Sc1ccc2c(CC(=O)O)csc2c1)c1cccc2nc(-c3ccc(C(F)(F)F)cc3)oc12 (racemic) [Example 82]", "195 to 198 °C"],
  ["Cc1cc(SC(C)(C)c2cccc3nc(-c4ccc(C(F)(F)F)cc4)oc23)ccc1OCC(=O)O [Example 75]", "131 to 133 °C"],
  ["Cc1cc(SCc2cccc3nc(-c4ccc(C(F)(F)F)cc4)oc23)ccc1OCC(=O)O [Example 68]", "180 to 182 °C"]
]}

Continue with the next molecule.
Short answer for CCc1cc(SCc2cccc3oc(-c4ccc(C(F)(F)F)cc4)nc23)ccc1OCC(=O)O [Example 67] : melting point was 127 to 128 °C

====

Would you kindly list melting point for each of these compounds?

Solved entries:
{"columns": ["compound", "measurement label", "result value"],
 "data": [
  ["Cc1cc(SC(C)c2cccc3nc(-c4ccc(C(F)(F)F)cc4)oc23)ccc1CCC(=O)O (racemic) [Example 80]", "melting point", "128 to 130 °C"],
  ["CCC(Sc1ccc(CCC(=O)O)c(C)c1)c1ccc2nc(-c3ccc(C(F)(F)F)cc3)sc2c1 (racemic) [Example 64]", "melting point", "105 to 108 °C"],
  ["Cc1cc(SCc2cccc3nc(-c4ccc(C(F)(F)F)cc4)oc23)ccc1CCC(=O)O [Example 69]", "melting point", "155 to 157 °C"],
  ["CCc1cc(OCc2ccc3nc(-c4ccc(C(F)(F)F)cc4)sc3c2)ccc1CCC(=O)O [Example 61]", "melting point", "203 to 205 °C"],
  ["Cc1cc(SCc2ccnc3[nH]c(-c4ccc(C(F)(F)F)cc4)nc23)ccc1CCC(=O)O [Example 104]", "melting point", "180 to 182 °C"]
]}

Count: 3. Required value per item: melting point.
1. O=C(O)Cc1csc2cc(SCc3cccc4nc(-c5ccc(C(F)(F)F)cc5)oc34)ccc12 [Example 71]
2. CCc1cc(OC(C)c2cccc3nc(-c4ccc(C(F)(F)F)cc4)oc23)ccc1CCC(=O)O (racemic) [Example 84]
3. Cc1cc(SCc2ccnc3sc(-c4ccc(C(F)(F)F)cc4)nc23)ccc1OCC(=O)O [Example 100]

A.
["208 to 210 °C", "60 to 63 °C", "82 to 85 °C"]

====

Would you kindly list melting point for each of these compounds?

Please review the entries below; each comes with its answer.
{"columns": ["compound", "melting point"],
 "data": [
  ["Cc1cc(SCc2ccnc3oc(-c4ccc(C(F)(F)F)cc4)nc23)ccc1OCC(=O)O [Example 95]", "154 to 157 °C"],
  ["CCc1cc(SCc2cccc3nc(-c4ccc(C(F)(F)F)cc4)sc23)ccc1OCC(=O)O [Example 45]", "160 to 164 °C"],
  ["CCc1cc(OCc2ccc3sc(-c4ccc(C(F)(F)F)cc4)nc3c2)ccc1CCC(=O)O [Example 55]", "188 to 190 °C"],
  ["Cc1cc(SCc2ccnc3c2nc(-c2ccc(C(F)(F)F)cc2)n3C)ccc1CCC(=O)O [Example 108]", "89 to 91 °C"]
]}

Report melting point for each item below.
1. O=C(O)Cc1cccc(SCc2cccc3nc(-c4ccc(C(F)(F)F)cc4)oc23)c1 [Example 73]
2. Cc1cc(SCCc2cccc3sc(-c4ccc(C(F)(F)F)cc4)nc23)ccc1OCC(=O)O [Example 48]
3. O=C(O)Cc1cccc(SCc2ccnc3[nH]c(-c4ccc(C(F)(F)F)cc4)nc23)c1 [Example 107]
4. O=C(O)Cc1csc2cc(SCc3cccc4nc(-c5ccc(C(F)(F)F)cc5)sc34)ccc12 [Example 47]

A.
147 to 149 °C
97 to 100 °C
213 to 215 °C
201 to 204 °C
